biological target: CYP1A2 (Homo sapiens, UniProt P05177); experiment: Inhibition of cDNA derived CYP isozymes; format: in vitro ADME; details: cDNA-derived (recombinant) CYP1A2
Sequence (P05177 whole entry): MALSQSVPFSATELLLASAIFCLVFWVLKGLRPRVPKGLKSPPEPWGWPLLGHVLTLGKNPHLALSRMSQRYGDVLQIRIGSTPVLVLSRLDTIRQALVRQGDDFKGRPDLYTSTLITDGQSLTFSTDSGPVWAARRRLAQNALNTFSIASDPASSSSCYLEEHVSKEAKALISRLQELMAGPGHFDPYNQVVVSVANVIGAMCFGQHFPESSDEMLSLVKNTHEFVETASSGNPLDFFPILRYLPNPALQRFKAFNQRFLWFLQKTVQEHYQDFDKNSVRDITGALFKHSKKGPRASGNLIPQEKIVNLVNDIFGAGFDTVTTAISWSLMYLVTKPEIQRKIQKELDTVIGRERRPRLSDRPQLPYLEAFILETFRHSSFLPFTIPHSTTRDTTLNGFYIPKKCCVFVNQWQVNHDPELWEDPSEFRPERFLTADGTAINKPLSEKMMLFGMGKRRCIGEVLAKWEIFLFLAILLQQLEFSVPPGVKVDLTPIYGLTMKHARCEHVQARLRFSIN
pIC50: −log10 of the molar value.
measurementLabel: pIC50

`CN1CCN(c2ccc3nc(-c4c(N)c5c(F)cccc5[nH]c4=O)[nH]c3c2)CC1` tested on CYP1A2 (Homo sapiens, UniProt P05177) gave pIC50: < 4.60

====

The entries below are paired with their reported IC50.
target: c-Kit (Homo sapiens, UniProt P10721); construct: Recombinant proteins corresponding to the cytoplasmic domains of the c-Kit and FLT-3 receptors were purchased (Proquinase); purchased Proquinase; test: In vitro RTK kinase assay (TRF or radioactive); format: biochemical; details: Table 13
Sequence (P10721 546-976 limits assumed): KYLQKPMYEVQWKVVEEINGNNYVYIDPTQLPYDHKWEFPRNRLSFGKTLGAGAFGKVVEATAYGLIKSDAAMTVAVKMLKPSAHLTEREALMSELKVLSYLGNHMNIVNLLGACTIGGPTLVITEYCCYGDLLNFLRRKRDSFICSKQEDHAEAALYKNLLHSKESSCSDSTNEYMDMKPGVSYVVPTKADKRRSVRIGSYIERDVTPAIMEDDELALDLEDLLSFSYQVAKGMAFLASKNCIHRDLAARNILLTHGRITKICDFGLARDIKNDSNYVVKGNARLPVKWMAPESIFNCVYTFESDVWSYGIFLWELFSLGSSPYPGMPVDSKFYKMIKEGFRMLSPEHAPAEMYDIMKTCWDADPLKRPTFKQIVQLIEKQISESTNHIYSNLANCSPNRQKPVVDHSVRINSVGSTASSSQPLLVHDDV
Report the figure in µM without appending any unit label.

# compound, assayedSystem, reportedValue
rows = [
    ("Nc1c(-c2nc3ccc(N4CCNCC4)cc3[nH]2)c(=O)[nH]c2cccc(F)c12 [Compound 3]", "c-Kit (Homo sapiens, UniProt P10721)", 0.0002),
]

Recorded result, C[N+]1([O-])CCN(c2ccc3nc(-c4c(N)c5c(F)cccc5[nH]c4=O)[nH]c3c2)CC1 [Compound 2] , IC50: 0.0002
